assay: Characterization of the CyNAMLA library (absorbance maximum wavelengths); type: physicochemical; conditions: absorbance maximum wavelength of CyNAMLA library compounds
observed-property: λabs (max) (nm)

compound	λabs (max), nm
CCCN1/C(=C/C=C2\CCCC(/C=C/C3=[N+](CCCNC(=O)CCCCC4CCSS4)c4ccccc4C3(C)C)=C2N(CCc2ccc(Cl)cc2Cl)C(C)=O)C(C)(C)c2ccccc21.O=C([O-])C(F)(F)F (stereo not drawn) [CyNAMLA-686]	806
CCCN1/C(=C/C=C2\CCCC(/C=C/C3=[N+](CCCNC(=O)CCCCC4CCSS4)c4ccccc4C3(C)C)=C2N(Cc2ccccc2C)C(C)=O)C(C)(C)c2ccccc21.O=C([O-])C(F)(F)F (stereo not drawn) [CyNAMLA-101]	803
CCCCC(CC)CN(C(C)=O)C1=C(/C=C/C2=[N+](CCCNC(=O)CCCCC3CCSS3)c3ccccc3C2(C)C)CCC/C1=C\C=C1\N(CCC)c2ccccc2C1(C)C.O=C([O-])C(F)(F)F (stereo not drawn) [CyNAMLA-230]	804
CCCN1/C(=C/C=C2\CCCC(/C=C/C3=[N+](CCCNC(=O)CCCCC4CCSS4)c4ccccc4C3(C)C)=C2N(Cc2ccc(Cl)c(Cl)c2)C(C)=O)C(C)(C)c2ccccc21.O=C([O-])C(F)(F)F (stereo not drawn) [CyNAMLA-565]	805
CCCN1/C(=C/C=C2\CCCC(/C=C/C3=[N+](CCCNC(=O)CCCCC4CCSS4)c4ccccc4C3(C)C)=C2N(CCc2cccc(F)c2)C(C)=O)C(C)(C)c2ccccc21.O=C([O-])C(F)(F)F (stereo not drawn) [CyNAMLA-405]	805
CCCN1/C(=C/C=C2\CCCC(/C=C/C3=[N+](CCCNC(=O)CCCCC4CCSS4)c4ccccc4C3(C)C)=C2N(CCCN2CCCC2)C(C)=O)C(C)(C)c2ccccc21.O=C([O-])C(F)(F)F (stereo not drawn) [CyNAMLA-611]	804
CCCN1/C(=C/C=C2\CCCC(/C=C/C3=[N+](CCCNC(=O)CCCCC4CCSS4)c4ccccc4C3(C)C)=C2N(Cc2c(OC)cc(OC)cc2OC)C(C)=O)C(C)(C)c2ccccc21.O=C([O-])C(F)(F)F (stereo not drawn) [CyNAMLA-336]	805
CCCCN(C(C)=O)C1=C(/C=C/C2=[N+](CCCNC(=O)CCCCC3CCSS3)c3ccccc3C2(C)C)CCC/C1=C\C=C1\N(CCC)c2ccccc2C1(C)C.O=C([O-])C(F)(F)F (stereo not drawn) [CyNAMLA-373]	804
CCCN1/C(=C/C=C2\CCCC(/C=C/C3=[N+](CCCNC(=O)CCCCC4CCSS4)c4ccccc4C3(C)C)=C2N(CCc2ccccc2-c2ccccc2)C(C)=O)C(C)(C)c2ccccc21.O=C([O-])C(F)(F)F (stereo not drawn) [CyNAMLA-599]	804
CCCN1/C(=C/C=C2\CCCC(/C=C/C3=[N+](CCCNC(=O)CCCCC4CCSS4)c4ccccc4C3(C)C)=C2N(CCc2ccccc2F)C(C)=O)C(C)(C)c2ccccc21.O=C([O-])C(F)(F)F (stereo not drawn) [CyNAMLA-477]	804
CCCN1/C(=C/C=C2\CCCC(/C=C/C3=[N+](CCCNC(=O)CCCCC4CCSS4)c4ccccc4C3(C)C)=C2N(CCc2ccc(OC)cc2)C(C)=O)C(C)(C)c2ccccc21.O=C([O-])C(F)(F)F (stereo not drawn) [CyNAMLA-395]	805
CCCCCCCCCCCCCN(C(C)=O)C1=C(/C=C/C2=[N+](CCCNC(=O)CCCCC3CCSS3)c3ccccc3C2(C)C)CCC/C1=C\C=C1\N(CCC)c2ccccc2C1(C)C.O=C([O-])C(F)(F)F (stereo not drawn) [CyNAMLA-55]	805
CCCN1/C(=C/C=C2\CCCC(/C=C/C3=[N+](CCCNC(=O)CCCCC4CCSS4)c4ccccc4C3(C)C)=C2N(CCc2cccc(OC)c2OC)C(C)=O)C(C)(C)c2ccccc21.O=C([O-])C(F)(F)F (stereo not drawn) [CyNAMLA-184]	803
CCCN1/C(=C/C=C2\CCCC(/C=C/C3=[N+](CCCNC(=O)CCCCC4CCSS4)c4ccccc4C3(C)C)=C2N(CCCOC(C)C)C(C)=O)C(C)(C)c2ccccc21.O=C([O-])C(F)(F)F (stereo not drawn) [CyNAMLA-274]	806
CCCN1/C(=C/C=C2\CCCC(/C=C/C3=[N+](CCCNC(=O)CCCCC4CCSS4)c4ccccc4C3(C)C)=C2N(Cc2ccc(OC)cc2OC)C(C)=O)C(C)(C)c2ccccc21.O=C([O-])C(F)(F)F (stereo not drawn) [CyNAMLA-181]	804
CCCC(C)N(C(C)=O)C1=C(/C=C/C2=[N+](CCCNC(=O)CCCCC3CCSS3)c3ccccc3C2(C)C)CCC/C1=C\C=C1\N(CCC)c2ccccc2C1(C)C.O=C([O-])C(F)(F)F (stereo not drawn) [CyNAMLA-185]	805
CCCN1/C(=C/C=C2\CCCC(/C=C/C3=[N+](CCCNC(=O)CCCCC4CCSS4)c4ccccc4C3(C)C)=C2N(C(C)=O)C2CCN(Cc3ccccc3)CC2)C(C)(C)c2ccccc21.O=C([O-])C(F)(F)F (stereo not drawn) [CyNAMLA-107]	805
CCCN1/C(=C/C=C2\CCCC(/C=C/C3=[N+](CCCNC(=O)CCCCC4CCSS4)c4ccccc4C3(C)C)=C2N(Cc2cccc(OC)c2OC)C(C)=O)C(C)(C)c2ccccc21.O=C([O-])C(F)(F)F (stereo not drawn) [CyNAMLA-124]	804

====

assay: Absorbance and fluorescence maximum wavelengths and quantum yields of the CyNA library; format: physicochemical; conditions: in DMSO, Cardiogreen as standard
The entries below come with measured φ, quantum yield values attached.
Respond numerically, and do not add a unit to the figure.

> print(dat)
                                   compound  value.reported
1  CCCN1/C(=C/C=C2\CCCC(/C=C/C3=[N+](CCC)c4ccccc4C3(C)C)=C2N(Cc2ccc(OC)cc2OC)C(C)=O)C(C)(C)c2ccccc21 [CyNA-358]            0.14
2  CCCN1/C(=C/C=C2\CCCC(/C=C/C3=[N+](CCC)c4ccccc4C3(C)C)=C2N(CCc2cccc(OC)c2)C(C)=O)C(C)(C)c2ccccc21            0.14

Need φ, quantum yield of `CCCN1/C(=C/C=C2\CCCC(/C=C/C3=[N+](CCC)c4ccccc4C3(C)C)=C2N(CC(c2ccccc2)c2ccccc2)C(C)=O)C(C)(C)c2ccccc21` , thanks. 0.04

====

Reported φ, quantum yield values are given for each entry in this list.
test: Absorbance and fluorescence maximum wavelengths and quantum yields of the CyNA library; assay type: physicochemical; conditions: in DMSO, Cardiogreen as standard
// response body must contain only the number

> print(dat)
                                   compound  observed.property  value.reported
1  CCCN1/C(=C/C=C2\CCCC(/C=C/C3=[N+](CCC)c4ccccc4C3(C)C)=C2N(Cc2cccc3ccccc23)C(C)=O)C(C)(C)c2ccccc21 [CyNA-542]   φ, quantum yield            0.08
2  CCCN1/C(=C/C=C2\CCCC(/C=C/C3=[N+](CCC)c4ccccc4C3(C)C)=C2N(CCCN2CCCC2=O)C(C)=O)C(C)(C)c2ccccc21 [CyNA-11]   φ, quantum yield            0.11
3  CCCN1/C(=C/C=C2\CCCC(/C=C/C3=[N+](CCC)c4ccccc4C3(C)C)=C2N(C(C)=O)C2CCCCCCC2)C(C)(C)c2ccccc21 [CyNA-219]   φ, quantum yield            0.14

What value of measured φ, quantum yield is listed for CCCN1/C(=C/C=C2\CCCC(/C=C/C3=[N+](CCC)c4ccccc4C3(C)C)=C2N(Cc2ccc(Cl)cc2)C(C)=O)C(C)(C)c2ccccc21 [CyNA-221] ? 0.07

Which measured φ, quantum yield value corresponds to CCCN1/C(=C/C=C2\CCCC(/C=C/C3=[N+](CCC)c4ccccc4C3(C)C)=C2N(C(C)=O)C2CCN(Cc3ccccc3)CC2)C(C)(C)c2ccccc21 [CyNA-107] ? 0.07

Entry CCCCC(CC)CN(C(C)=O)C1=C(/C=C/C2=[N+](CCC)c3ccccc3C2(C)C)CCC/C1=C\C=C1\N(CCC)c2ccccc2C1(C)C (stereo not drawn) [CyNA-230] : reported φ, quantum yield = ? 0.09

====

Assay: Absorbance and fluorescence maximum wavelengths and quantum yields of the CyNA library
Type: physicochemical
Details: in DMSO, Cardiogreen as standard
Description: Since the k values of the different CyNA compounds indicated some dependency on the chemical structure of the amine, the CyNA scaffold was derivatized with a broad range of primary amines (FIGS. 4A-4C). The fluorescence properties of the 80-member CyNA library were measured. The absorption maximum wavelengths ranged from 802 nm to 806 nm, emission maximum wavelengths ranged from 817 nm to 823 nm, and the average quantum yield was approximately 0.10 (Table 2). […]
The following compounds are shown together with reported φ, quantum yield values.
Respond with the number and no other words.

# example entries with known answers
> print(dat)
                                   compound  value.reported
1  CCCN1/C(=C/C=C2\CCCC(/C=C/C3=[N+](CCC)c4ccccc4C3(C)C)=C2N(CCc2ccc([N+](=O)[O-])cc2)C(C)=O)C(C)(C)c2ccccc21 [CyNA-359]            0.11
2  CCCN1/C(=C/C=C2\CCCC(/C=C/C3=[N+](CCC)c4ccccc4C3(C)C)=C2N(Cc2cccc(OC)c2OC)C(C)=O)C(C)(C)c2ccccc21 [CyNA-124]            0.15
3  CCCN1/C(=C/C=C2\CCCC(/C=C/C3=[N+](CCC)c4ccccc4C3(C)C)=C2N(Cc2ccccc2)C(C)=O)C(C)(C)c2ccccc21 [CyNA-374]            0.14
4  CCCN1/C(=C/C=C2\CCCC(/C=C/C3=[N+](CCC)c4ccccc4C3(C)C)=C2N(CCc2ccc(C)cc2)C(C)=O)C(C)(C)c2ccccc21.[I-] [CyNA-478]            0.09
5  CCCN1/C(=C/C=C2\CCCC(/C=C/C3=[N+](CCC)c4ccccc4C3(C)C)=C2N(Cc2ccccc2OC)C(C)=O)C(C)(C)c2ccccc21 [CyNA-388]            0.14
6  CCCN1/C(=C/C=C2\CCCC(/C=C/C3=[N+](CCC)c4ccccc4C3(C)C)=C2N(CCC(C)C)C(C)=O)C(C)(C)c2ccccc21 [CyNA-442]            0.07
7  CCCN1/C(=C/C=C2\CCCC(/C=C/C3=[N+](CCC)c4ccccc4C3(C)C)=C2N(Cc2ccc(F)cc2)C(C)=O)C(C)(C)c2ccccc21 [CyNA-218]            0.08

Below: the item to evaluate.
Quick one: φ, quantum yield for CCCN1/C(=C/C=C2\CCCC(/C=C/C3=[N+](CCC)c4ccccc4C3(C)C)=C2N(CC)C(C)=O)C(C)(C)c2ccccc21.[I-] [CyNA-295] ? 0.11
